# Tested on: Rattus norvegicus
# ASSAY EXPLANATION: Antiinflammatory activity in rat carrageenan-induced paw edema model assessed as inhibition of paw swelling at 25 mg/kg, ip administered 30 mins prior to carrageenan challenge measured after 3 hrs
# Format: functional
MEASURED PARAMETER: inhibition in vivo at 25 mg/kg (%)
Give bare numbers, in %.

The examples below pair each entry with its known result.
## Input Param request: inhibition in vivo at 25 mg/kg | system Rattus norvegicus | item O=C(O)Cc1ccccc1Nc1c(Cl)cccc1Cl [DICLOFENAC]
## Output 64.4

## Input Report inhibition in vivo at 25 mg/kg on Rattus norvegicus for this entry: `O=C(O)c1c(O)c(F)cc(F)c1F`
## Output 47

## Input Lab note: record inhibition in vivo at 25 mg/kg of `CC(=O)Oc1c(F)cc(F)c(F)c1C(=O)O` tested on Rattus norvegicus.
## Output 37.3

## Input Provide Rattus norvegicus inhibition in vivo at 25 mg/kg reading for `COc1c(F)c(F)c(F)c(F)c1C(=O)O` .
## Output 53.8

Next compound, please.
## Input // output inhibition in vivo at 25 mg/kg; input `CC(=O)Oc1c(F)c(F)c(F)c(F)c1C(=O)O` ; system Rattus norvegicus
## Output 42.9

----------
# ASSAYED SYSTEM: Prostaglandin G/H synthase 1 (Ovis aries) (UniProt P05979)
# Sequence (P05979 whole entry): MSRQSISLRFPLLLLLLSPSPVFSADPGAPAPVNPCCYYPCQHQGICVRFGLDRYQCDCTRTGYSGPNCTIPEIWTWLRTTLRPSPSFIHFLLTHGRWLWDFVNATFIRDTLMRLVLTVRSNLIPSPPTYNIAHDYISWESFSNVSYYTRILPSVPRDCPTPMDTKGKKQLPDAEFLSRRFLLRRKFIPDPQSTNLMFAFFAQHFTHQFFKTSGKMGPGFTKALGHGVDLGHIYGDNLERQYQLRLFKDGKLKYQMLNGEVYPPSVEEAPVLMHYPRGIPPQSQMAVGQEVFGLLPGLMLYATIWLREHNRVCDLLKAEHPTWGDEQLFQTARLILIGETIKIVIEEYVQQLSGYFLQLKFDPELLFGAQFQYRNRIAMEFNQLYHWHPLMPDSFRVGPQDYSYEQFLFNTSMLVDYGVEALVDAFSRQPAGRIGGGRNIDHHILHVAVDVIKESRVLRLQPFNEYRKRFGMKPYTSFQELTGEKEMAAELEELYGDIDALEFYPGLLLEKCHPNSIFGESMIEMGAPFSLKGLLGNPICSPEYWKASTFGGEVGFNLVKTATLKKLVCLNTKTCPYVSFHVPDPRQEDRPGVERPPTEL
# ASSAY EXPLANATION: Inhibition of ovine COX-1 assessed as reduction in PGG2 production using ADHP as substrate at 200 uM incubated for 5 mins followed by substrate addition measured after 2 mins by fluorescence assay
For each entry below, report its inhibition value.
One number for each entry, in %.

// worked examples, inhibition included
## Input Quote inhibition reported for `CC(=O)Oc1c(C(=O)O)cc(F)c(F)c1F` please.
## Output 18

## Input Quickly give me recorded inhibition for `COc1c(F)c(F)c(F)c(F)c1C(=O)O`
## Output 64

## Input Please report inhibition for the following compound: `COC(=O)c1c(O)c(F)c(F)c(F)c1F`
## Output 48

Continuing:
## Input Specify inhibition for `CC(=O)Oc1ccccc1C(=O)O` and stop.
## Output 36

----------
# ASSAY EXPLANATION: Acute toxicity in CD-1 mouse assessed as viability at 300 mg/kg, ip measured up to 14 days
# Format: organism-based
# REPORTED CONDITIONS: in vivo
MEASURED PARAMETER: survival at 336 h

## Input Give the reported value of survival at 336 h for this record: `CC(=O)Oc1ccccc1C(=O)O`
## Output 33%

----------
# ASSAY EXPLANATION: Permeability of the compound at pH 5 after 2 hrs by PAMPA
# Assay type: ADME
# REPORTED CONDITIONS: read-out: Peff
Give Papp at 2 h for every item shown.
Answers are plain numbers, in ×10⁻⁶ cm/s.

## Input Give the measured Papp at 2 h for `CC(=O)Oc1ccccc1C(=O)O`
## Output 5.1

// each compound listed below needs its Papp at 2 h
1. O=C([O-])c1c(O)c(F)c(F)c(F)c1F.[Na+]
2. O=C(O)c1c(O)c(F)c(F)c(F)c1F

## Output
1. 22.1
2. 18.6

----------
Consider the following molecules; for each one, report its Papp at 2 h.
# ASSAY EXPLANATION: Permeability of the compound at pH 6.2 after 2 hrs by PAMPA
# Type: ADME
# REPORTED CONDITIONS: read-out: Peff
Give bare numbers, in ×10⁻⁶ cm/s.

## Input Please list Papp at 2 h recorded for the molecule `O=C(O)c1c(O)c(F)c(F)c(F)c1F`
## Output 0.5

Now turn to the next molecule.
## Input Give a short answer stating reported Papp at 2 h for `O=C([O-])c1c(O)c(F)c(F)c(F)c1F.[Na+]` .
## Output 1.8
